# measurementTarget: HLA-A*26:02
# test: IEDB peptide-MHC binding, purified MHC/competitive/fluorescence; filed as Kd, often an IC50 or EC50 that approximates it; bounds were set here for any values at or beyond the usual limits of such assays
# conditionLabel: source organism: Vaccinia virus WR
observedProperty: Kd

Problem: For the sequence YHRPLTGYM , report Kd.
Result: ≥ 20 µM

* * *

# measurementTarget: HLA-A*01:01
# test: IEDB peptide-MHC binding, purified MHC/competitive/radioactivity; filed as Kd, often an IC50 or EC50 that approximates it; bounds were set here for any values at or beyond the usual limits of such assays
# conditionLabel: source organism: Dengue virus 3 Sri Lanka/1266/2000
observedProperty: Kd

Problem: Please report the measured Kd for LLIVSGIFPY
Result: 7.5 µM

* * *

# measurementTarget: HLA-B*39:01
# test: IEDB peptide-MHC binding, purified MHC/competitive/fluorescence; filed as Kd, often an IC50 or EC50 that approximates it; bounds were set here for any values at or beyond the usual limits of such assays
# conditionLabel: source organism: Entamoeba histolytica HM-1:IMSS
pKd: −log10 of the molar value.
observedProperty: pKd

Problem: For the sequence TLPGCLIIL , give its reported pKd.
Result: ≤ 4.70

* * *

# measurementTarget: HLA-B*18:01
# test: IEDB peptide-MHC binding, purified MHC/competitive/radioactivity; filed as Kd, often an IC50 or EC50 that approximates it; bounds were set here for any values at or beyond the usual limits of such assays
# conditionLabel: source organism: Hepatitis C virus (isolate H)
observedProperty: Kd

Problem: Supply reported Kd belonging to this sequence: HPALVFDITK
Result: ≥ 28.2 µM

* * *

# measurementTarget: HLA-A*02:12
# test: IEDB peptide-MHC binding, purified MHC/direct/fluorescence; filed as Kd, often an IC50 or EC50 that approximates it; bounds were set here for any values at or beyond the usual limits of such assays
# conditionLabel: source organism: Choclo virus
pKd: −log10 of the molar value.
observedProperty: pKd

Problem: Write down pKd measured for item GRFQEALKK
Result: ≤ 4.70

* * *

# measurementTarget: HLA-A*24:03
# test: IEDB peptide-MHC binding, purified MHC/direct/fluorescence; filed as Kd, often an IC50 or EC50 that approximates it; bounds were set here for any values at or beyond the usual limits of such assays
# conditionLabel: source organism: Orthohantavirus andesense
observedProperty: Kd

Problem: # return recorded Kd for input IQNALEKAL
Result: ≥ 20 µM

* * *

# measurementTarget: HLA-B*27:03
# test: IEDB peptide-MHC binding, purified MHC/competitive/fluorescence; filed as Kd, often an IC50 or EC50 that approximates it; bounds were set here for any values at or beyond the usual limits of such assays
# conditionLabel: source organism: Giardia lamblia ATCC 50803
pKd: −log10 of the molar value.
observedProperty: pKd

Problem: Entry TELPLAYER needs its pKd filled in; supply it.
Result: ≤ 4.70

* * *

# measurementTarget: HLA-B*08:01
# test: IEDB peptide-MHC binding, purified MHC/competitive/fluorescence; filed as Kd, often an IC50 or EC50 that approximates it; bounds were set here for any values at or beyond the usual limits of such assays
# conditionLabel: source organism: Escherichia coli
The following sequences are listed with their measured Kd values.
Answer as a quantity: numeral, then unit.

seq=ENALRGVAV measurementtarget=HLA-B*08:01 observed="377 nM"

We now examine a further sequence.
Problem: Assign Kd to the following record: HENARLRAL
Result: 175 nM

* * *

# measurementTarget: HLA-B*35:01
# test: IEDB peptide-MHC binding, purified MHC/competitive/radioactivity; filed as Kd, often an IC50 or EC50 that approximates it; bounds were set here for any values at or beyond the usual limits of such assays
# conditionLabel: source organism: Triticum aestivum
pKd: −log10 of the molar value.
observedProperty: pKd

Problem: Item QPQYSQPQQPI : provide pKd
Result: ≤ 4.20

* * *

# measurementTarget: HLA-B*48:01
# test: IEDB peptide-MHC binding, purified MHC/direct/fluorescence; filed as Kd, often an IC50 or EC50 that approximates it; bounds were set here for any values at or beyond the usual limits of such assays
# conditionLabel: source organism: Giardia intestinalis
observedProperty: Kd

Problem: Specify measured Kd for RTMPLSRFT .
Result: ≥ 20 µM

* * *

# measurementTarget: HLA-B*44:02
# test: IEDB peptide-MHC binding, purified MHC/direct/fluorescence; filed as Kd, often an IC50 or EC50 that approximates it; bounds were set here for any values at or beyond the usual limits of such assays
# conditionLabel: source organism: Giardia lamblia ATCC 50803
pKd: −log10 of the molar value.
observedProperty: pKd

Problem: Please report the measured pKd for IHKPRPPAT tested on HLA-B*44:02.
Result: ≤ 4.70

* * *

# measurementTarget: HLA-A*69:01
# test: IEDB peptide-MHC binding, purified MHC/competitive/fluorescence; filed as Kd, often an IC50 or EC50 that approximates it; bounds were set here for any values at or beyond the usual limits of such assays
# conditionLabel: source organism: Orthohantavirus dobravaense
observedProperty: Kd

Problem: In one line, give reported Kd of the entry MRNTIMASK .
Result: ≥ 20 µM

* * *

# measurementTarget: HLA-B*39:01
# test: IEDB peptide-MHC binding, purified MHC/competitive/fluorescence; filed as Kd, often an IC50 or EC50 that approximates it; bounds were set here for any values at or beyond the usual limits of such assays
# conditionLabel: source organism: Entamoeba dispar SAW760
observedProperty: Kd

Problem: Name the recorded Kd of the sequence listed here: KDGTLFYCY
Result: ≥ 20 µM

* * *

# measurementTarget: HLA-C*12:03
# test: IEDB peptide-MHC binding, purified MHC/direct/fluorescence; filed as Kd, often an IC50 or EC50 that approximates it; bounds were set here for any values at or beyond the usual limits of such assays
# conditionLabel: source organism: Vaccinia virus WR
observedProperty: Kd (nM)
Output spec: scalar in nM, unitless text.

Problem: Provide Kd, recorded with HLA-C*12:03, of FLRDNLYHV
Result: 29

* * *

Parameter Kd: see the listing below.
# measurementTarget: HLA-A*24:02
# test: IEDB peptide-MHC binding, purified MHC/competitive/radioactivity; filed as Kd, often an IC50 or EC50 that approximates it; bounds were set here for any values at or beyond the usual limits of such assays
# conditionLabel: source organism: Dengue virus 4 Philippines/H241/1956
Respond with the bare value in nM.

Please review the following examples before continuing.
seq=NYKERMVTF measurementtarget=HLA-A*24:02 observed=19.4
seq=SYKVASAGI measurementtarget=HLA-A*24:02 observed=105

With those in mind, consider the next sequence.
Problem: Provide measured Kd value, entry: AYQHALNEL
Result: 199

* * *

# measurementTarget: HLA-B*15:17
# test: IEDB peptide-MHC binding, purified MHC/competitive/fluorescence; filed as Kd, often an IC50 or EC50 that approximates it; bounds were set here for any values at or beyond the usual limits of such assays
# conditionLabel: source organism: Homo sapiens
observedProperty: Kd

Problem: Give recorded Kd. GPSPSHKSV
Result: ≥ 20 µM

* * *

# measurementTarget: HLA-A*24:03
# test: IEDB peptide-MHC binding, purified MHC/competitive/fluorescence; filed as Kd, often an IC50 or EC50 that approximates it; bounds were set here for any values at or beyond the usual limits of such assays
# conditionLabel: source organism: Vibrio parahaemolyticus RIMD 2210633
observedProperty: Kd

Problem: Provide Kd, system HLA-A*24:03, entry GTVPTDNPF
Result: ≥ 20 µM

* * *

# measurementTarget: HLA-B*15:17
# test: IEDB peptide-MHC binding, purified MHC/direct/fluorescence; filed as Kd, often an IC50 or EC50 that approximates it; bounds were set here for any values at or beyond the usual limits of such assays
# conditionLabel: source organism: Camelpox virus M-96
observedProperty: pKd
The read-out pKd is expressed as -log10 of concentration in moles per litre.

Problem: Name the recorded pKd of ISGSNIVIF , assay system HLA-B*15:17.
Result: 6.81

* * *

# measurementTarget: HLA-A*02:19
# test: IEDB peptide-MHC binding, purified MHC/direct/fluorescence; filed as Kd, often an IC50 or EC50 that approximates it; bounds were set here for any values at or beyond the usual limits of such assays
# conditionLabel: source organism: Zaire ebolavirus
observedProperty: Kd

seq=FLILPQAKK observed="≥ 20 µM"

Consider the additional sequence presented here.
Problem: Hello, please tell me recorded Kd for this one: EAEKQLQQY
Result: ≥ 20 µM

* * *

# measurementTarget: HLA-B*15:17
# test: IEDB peptide-MHC binding, purified MHC/competitive/fluorescence; filed as Kd, often an IC50 or EC50 that approximates it; bounds were set here for any values at or beyond the usual limits of such assays
# conditionLabel: source organism: Human immunodeficiency virus type 1 (MAL ISOLATE)
observedProperty: Kd (nM)
Answer format: numeric, nM implied, no suffix.

Problem: Please give measured Kd of the following entry: GSEEIKSLY
Result: 98.9

Data provenance is the Immune Epitope Database (IEDB).
